Tested on: P388 leukemia ip, CD2F1 mice, survival T/C
Test Protocol: NCI In Vivo Anticancer Drug Screen. Data for tumor model P388 Leukemia (intraperitoneal) in CD2F1 (CDF1) mice
Condition Context: endpoint: median survival time; dose: 200.0 mg/kg/injection; schedule: Q01DX009 (ip); vehicle: saline
Inconclusive results and toxic doses are left out. How the source made its calls: active means survival T/C of 150% or more; inactive means T/C below 125% in these data.
Labels: True = active, False = inactive

- Compound: "OC(CN1CCOCC1)c1ccccn1 (centres undefined)"
  Cat: "False"
- Compound: "CNc1cc2nc3ccccc3nc2cc1O"
  Cat: "False"
- Compound: "O=C(O)C(=O)Nc1cccc2c1ccc1c(=O)cc(C(=O)O)[nH]c12"
  Cat: "False"
- Compound: "C[N+](C)(C)CCOP(=O)([O-])OC1CCCC1"
  Cat: "False"
- Compound: "CCc1c2cc(OC)c(OC)cc2cc2c3cc(OC)c(OC)cc3cc[n+]12 (tested in a mixture with another compound)"
  Cat: "True"
- Compound: "CCOC(=O)COc1ccc2c(=O)c(C)c(-c3ccccc3)oc2c1"
  Cat: "False"
- Compound: "CC1=CC2ON=C(c3c(C)cc(C)cc3C)N2N(C(=O)c2ccccc2)C=C1 (centres undefined)"
  Cat: "False"
- Compound: "CC(=O)OC1CCC(C2CCCCC2)CC1 (centres undefined)"
  Cat: "False"
- Compound: "CC(C)c1nc(N)nc(N)n1"
  Cat: "False"
- Compound: "CN1C(=O)C2N(C(=O)C1(C)S)c1ccccc1C2(C)C (centres undefined)"
  Cat: "False"
- Compound: "O=C(Nc1ccc2c(O)c(N=Nc3ccc(N=Nc4ccc(S(=O)(=O)O)cc4)cc3)c(S(=O)(=O)O)cc2c1)c1ccccc1"
  Cat: "False"
- Compound: "CCOC(=O)CS(=O)(=O)CCCCCCS(=O)(=O)CC(=O)OCC"
  Cat: "False"
- Compound: "CCS(=O)(=O)C(C(O)C(O)C(O)C(C)O)S(=O)(=O)CC (centres undefined)"
  Cat: "False"
- Compound: "Oc1ccc(C2N=CNc3nc[nH]c32)c(O)c1 (centres undefined)"
  Cat: "False"
- Compound: "CCc1cc2c(cc1-c1csc(C/C(N)=N/O)n1)C(C)(C)CCC2(C)C"
  Cat: "False"
- Compound: "Nc1ccccc1SC1CCCCC1O (centres undefined)"
  Cat: "False"
- Compound: "CC(C)N(CCNc1cccnc1[N+](=O)[O-])C(C)C"
  Cat: "False"
- Compound: "Cc1cc(C)n(-c2cc(N3CCN(C)CC3)ncn2)n1"
  Cat: "False"
- Compound: "C=CCN1Cc2ccccc2-c2ccccc2C1"
  Cat: "False"
- Compound: "O=C1c2ccccc2N(C(=O)CN2CCOCC2)CN1c1ccccc1"
  Cat: "False"
- Compound: "CC(C)(C)OC(=O)NCC(=O)NNC(=O)OC(C)(C)C"
  Cat: "False"
- Compound: "NC(=S)N/N=C/C=N/NC(N)=S"
  Cat: "False"
- Compound: "CCCCCCCC[N+]1([O-])CCOCC1"
  Cat: "False"
- Compound: "CCOC(=O)C1(O)CC2(CCC(OCc3ccccc3)CC2)C(=O)O1 (centres undefined)"
  Cat: "False"
